Test system: 958667-338-R-J2-PDC tumor spheroids viability
TEST SUMMARY: Anticancer human tumor 958667-338-R-J2-PDC patient-derived colon adenocarcinoma cell line growth inhibition [PI3K]
EXPERIMENTAL CONDITIONS: second compound 0.0316 µM; first compound 0.01 µM; stronger effect = lower value; spheroids with HUVEC and MSC
From the text: Combinatorial screen of targeted agents with the PI3K inhibitors inavolisib, alpelisib, duvelisib, and copanlisib in multi-cell type tumor spheroids A high-throughput screen of multi-cell type tumor spheroids was designed to identify active combinations of targeted small molecules and PI3K pathway inhibitors. […] Compounds. […] If the clinical Cmax for an agent had not been determined, the highest concentration tested was 10 microM. […]
Each entry below carries its reported viability, T/C.
Just the number please, in %, no unit attached.

Guide cases for viability, T/C, answers given:
CC(=O)c1c(C)c2cnc(Nc3ccc(N4CCNCC4)cn3)nc2n(C2CCCC2)c1=O + CC(Nc1ccc2c(c1)OCCn1cc(N3C(=O)OCC3C(F)F)nc1-2)C(N)=O : 90.2
CC(C)n1nc(-c2ccc3oc(N)nc3c2)c2c(N)ncnc21 + CC(Nc1ccc2c(c1)OCCn1cc(N3C(=O)OCC3C(F)F)nc1-2)C(N)=O : 65
CCN1CCN(Cc2ccc(Nc3ncc(F)c(-c4cc(F)c5nc(C)n(C(C)C)c5c4)n3)nc2)CC1 + COc1c(OCCCN2CCOCC2)ccc2c3n(c(=NC(=O)c4cnc(N)nc4)nc12)CCN3 : 61.2
CC(C)n1nc(-c2ccc3oc(N)nc3c2)c2c(N)ncnc21 + COc1c(OCCCN2CCOCC2)ccc2c3n(c(=NC(=O)c4cnc(N)nc4)nc12)CCN3 : 58.1
CC(C)n1nc(-c2ccc3oc(N)nc3c2)c2c(N)ncnc21 + Cc1nc(NC(=O)N2CCCC2C(N)=O)sc1-c1ccnc(C(C)(C)C(F)(F)F)c1 : 77.8

For the record CC(=O)c1c(C)c2cnc(Nc3ccc(N4CCNCC4)cn3)nc2n(C2CCCC2)c1=O + CC(Nc1ncnc2nc[nH]c12)c1cc2cccc(Cl)c2c(=O)n1-c1ccccc1 , what value of viability, T/C is listed for 958667-338-R-J2-PDC tumor spheroids viability?
117

----------
Tested on: 958667-338-R-J2-PDC tumor spheroids viability
TEST SUMMARY: Anticancer human tumor 958667-338-R-J2-PDC cell line growth inhibition [PI3K];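 note: spheroids exposed to compounds for seven days before readout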
EXPERIMENTAL CONDITIONS: second compound 3.16 µM; first compound 0.1 µM; stronger effect = lower value; spheroids with HUVEC and MSC
MEASUREMENT NAME: viability, T/C (%)
Just the number please, in %, no unit attached.

CC(C)NCC(C(=O)N1CCN(c2ncnc3c2C(C)CC3O)CC1)c1ccc(Cl)cc1 (stereo not drawn) + Cc1nc(NC(=O)N2CCCC2C(N)=O)sc1-c1ccnc(C(C)(C)C(F)(F)F)c1 : 68.3
Cn1nccc1Nc1nccc(-c2ccn(C(CO)c3ccc(Cl)c(F)c3)c(=O)c2)n1 (stereo not drawn) + CC(Nc1ncnc2nc[nH]c12)c1cc2cccc(Cl)c2c(=O)n1-c1ccccc1 : 79.9

For the record C#Cc1c(F)ccc2cc(O)cc(-c3ncc4c(N5CC6CCC(C5)N6)nc(OCC56CCCN5CC(F)C6)nc4c3F)c12 (stereo not drawn) + CC(Nc1ncnc2nc[nH]c12)c1cc2cccc(Cl)c2c(=O)n1-c1ccccc1 , what value of viability, T/C is listed for 958667-338-R-J2-PDC tumor spheroids viability?
94.2

----------
Each entry below carries its reported viability, T/C.
System: 958667-338-R-J2-PDC tumor spheroids viability
TEST SUMMARY: Anticancer human tumor 958667-338-R-J2-PDC cell line growth inhibition [PI3K];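 note: spheroids exposed to compounds for seven days before readout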
EXPERIMENTAL CONDITIONS: second compound 0.0316 µM; first compound 3.16 µM; stronger effect = lower value; spheroids with HUVEC and MSC
Just the number please, in %, no unit attached.

Looking for the measured viability, T/C of CC1(C)CCC(CN2CCN(c3ccc(C(=O)NS(=O)(=O)c4ccc(NCC5CCOCC5)c([N+](=O)[O-])c4)c(Oc4cnc5[nH]ccc5c4)c3)CC2)=C(c2ccc(Cl)cc2)C1 + COc1c(OCCCN2CCOCC2)ccc2c3n(c(=NC(=O)c4cnc(N)nc4)nc12)CCN3 , can you help?
80.6

----------
Tested on: 958667-338-R-J2-PDC tumor spheroids viability
TEST SUMMARY: Anticancer human tumor 958667-338-R-J2-PDC cell line growth inhibition [PI3K];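 note: spheroids exposed to compounds for seven days before readout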
EXPERIMENTAL CONDITIONS: second compound 0.01 µM; first compound 0.316 µM; stronger effect = lower value; spheroids with HUVEC and MSC
MEASUREMENT NAME: viability, T/C (%)
Just the number please, in %, no unit attached.

CC1(C)CCC(CN2CCN(c3ccc(C(=O)NS(=O)(=O)c4ccc(NCC5CCOCC5)c([N+](=O)[O-])c4)c(Oc4cnc5[nH]ccc5c4)c3)CC2)=C(c2ccc(Cl)cc2)C1 + CC(Nc1ccc2c(c1)OCCn1cc(N3C(=O)OCC3C(F)F)nc1-2)C(N)=O : 91.2
CC1(C)CCC(Nc2ncc(C(F)(F)F)c(-c3c[nH]c4c(P(C)(C)=O)c(C#N)ccc34)n2)CN1 (stereo not given) + CC(Nc1ccc2c(c1)OCCn1cc(N3C(=O)OCC3C(F)F)nc1-2)C(N)=O : 76.9
CC(C)NCC(C(=O)N1CCN(c2ncnc3c2C(C)CC3O)CC1)c1ccc(Cl)cc1 (stereo not given) + COc1c(OCCCN2CCOCC2)ccc2c3n(c(=NC(=O)c4cnc(N)nc4)nc12)CCN3 : 69
CNC(=O)c1ccc(N2C(=S)N(c3ccc(C#N)c(C(F)(F)F)c3)C(=O)C2(C)C)cc1F + CC(Nc1ccc2c(c1)OCCn1cc(N3C(=O)OCC3C(F)F)nc1-2)C(N)=O : 80.6

Looking for the measured viability, T/C of CNC(=O)c1ccc(N2C(=S)N(c3ccc(C#N)c(C(F)(F)F)c3)C(=O)C2(C)C)cc1F + COc1c(OCCCN2CCOCC2)ccc2c3n(c(=NC(=O)c4cnc(N)nc4)nc12)CCN3 , can you help?
90.1

Looking for the measured viability, T/C of CCCS(=O)(=O)Nc1ccc(F)c(C(=O)c2c[nH]c3ncc(-c4ccc(Cl)cc4)cc23)c1F + COc1c(OCCCN2CCOCC2)ccc2c3n(c(=NC(=O)c4cnc(N)nc4)nc12)CCN3 , can you help?
111

Looking for the measured viability, T/C of CC1(C)CCC(CN2CCN(c3ccc(C(=O)NS(=O)(=O)c4ccc(NCC5CCOCC5)c([N+](=O)[O-])c4)c(Oc4cnc5[nH]ccc5c4)c3)CC2)=C(c2ccc(Cl)cc2)C1 + COc1c(OCCCN2CCOCC2)ccc2c3n(c(=NC(=O)c4cnc(N)nc4)nc12)CCN3 , can you help?
72.5

Looking for the measured viability, T/C of C=CC(=O)N1CCN(c2nc(=O)n(-c3c(C)ccnc3C(C)C)c3nc(-c4c(O)cccc4F)c(F)cc23)C(C)C1 (stereo not given) + CC(Nc1ccc2c(c1)OCCn1cc(N3C(=O)OCC3C(F)F)nc1-2)C(N)=O , can you help?
101

Looking for the measured viability, T/C of C[C@@H](NC(=O)c1ncnc(N)c1Cl)c1ncc(C(=O)Nc2cc(C(F)(F)F)c(Cl)cn2)s1 + CC(Nc1ccc2c(c1)OCCn1cc(N3C(=O)OCC3C(F)F)nc1-2)C(N)=O , can you help?
113

Looking for the measured viability, T/C of Cn1nccc1Nc1nccc(-c2ccn(C(CO)c3ccc(Cl)c(F)c3)c(=O)c2)n1 (stereo not given) + COc1c(OCCCN2CCOCC2)ccc2c3n(c(=NC(=O)c4cnc(N)nc4)nc12)CCN3 , can you help?
99.1

----------
Test system: 958667-338-R-J2-PDC tumor spheroids viability
TEST SUMMARY: Anticancer human tumor 958667-338-R-J2-PDC cell line growth inhibition [PI3K];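 note: spheroids exposed to compounds for seven days before readout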
EXPERIMENTAL CONDITIONS: second compound 0.00316 µM; first compound 0.000316 µM; stronger effect = lower value; spheroids with HUVEC and MSC
MEASUREMENT NAME: viability, T/C (%)
Just the number please, in %, no unit attached.

CC(=O)c1c(C)c2cnc(Nc3ccc(N4CCNCC4)cn3)nc2n(C2CCCC2)c1=O + CC(Nc1ccc2c(c1)OCCn1cc(N3C(=O)OCC3C(F)F)nc1-2)C(N)=O : 96.6

Looking for the measured viability, T/C of Cn1ncnc1[C@H]1c2n[nH]c(=O)c3cc(F)cc(c23)N[C@@H]1c1ccc(F)cc1 + COc1c(OCCCN2CCOCC2)ccc2c3n(c(=NC(=O)c4cnc(N)nc4)nc12)CCN3 , can you help?
96.3

Looking for the measured viability, T/C of CC(=O)c1c(C)c2cnc(Nc3ccc(N4CCNCC4)cn3)nc2n(C2CCCC2)c1=O + COc1c(OCCCN2CCOCC2)ccc2c3n(c(=NC(=O)c4cnc(N)nc4)nc12)CCN3 , can you help?
103

Looking for the measured viability, T/C of Cn1ncnc1[C@H]1c2n[nH]c(=O)c3cc(F)cc(c23)N[C@@H]1c1ccc(F)cc1 + CC(Nc1ccc2c(c1)OCCn1cc(N3C(=O)OCC3C(F)F)nc1-2)C(N)=O , can you help?
111

Looking for the measured viability, T/C of CC(C)n1nc(-c2ccc3oc(N)nc3c2)c2c(N)ncnc21 + CC(Nc1ccc2c(c1)OCCn1cc(N3C(=O)OCC3C(F)F)nc1-2)C(N)=O , can you help?
103

Looking for the measured viability, T/C of CC(C)n1nc(-c2ccc3oc(N)nc3c2)c2c(N)ncnc21 + COc1c(OCCCN2CCOCC2)ccc2c3n(c(=NC(=O)c4cnc(N)nc4)nc12)CCN3 , can you help?
88.1
